For each entry below, report its refractive index value.
# protocol: refractive index (Na D-line) (dimensionless)
# condition.label: 298.15 K; 101.33 kPa; Liquid; Standard Abbe refractometry
Lab note: write the figure by itself, no unit.

The recorded refractive index for CCCCn1cc[n+](C)c1.F[B-](F)(F)F [1-butyl-3-methylimidazolium tetrafluoroborate] is 1.4219

The recorded refractive index for ClCCCCl [1,3-dichloropropane] is 1.446

The recorded refractive index for C[N+](=O)[O-] [nitromethane] is 1.3796

The recorded refractive index for CCCCn1cc[n+](C)c1.COS(=O)(=O)[O-] [1-butyl-3-methylimidazolium methyl sulfate] is 1.4794

The recorded refractive index for CCO [ethanol] is 1.3593

The recorded refractive index for OCCO [1,2-ethanediol] is 1.4304

The recorded refractive index for CCOCCOCCO [3,6-dioxa-1-octanol] is 1.4253
